Test system: polyclonal antibody raised to Immunogen IV
Assay: Competitive biochip immunoassay of pyrrolidinophenones and potential cross-reactants (Evidence Investigator)
Type: binding, sheep
Structures can show the parent of a compound that is named as a salt.
Entries annotated with measured % Cross-Reactivity

CC(C(=O)c1ccc2c(c1)OCO2)N1CCCC1.Cl (racemic) = 12%
CCCC(C(=O)c1ccc2ccccc2c1)N1CCCC1.Cl (racemic) = 44%
CNC(C)C(=O)c1ccc(C)cc1 (stereo not drawn) [Mephedrone HCl] = <1%
c1ccc(CN2CCNCC2)cc1 = <1%

Lookup: Look up % Cross-Reactivity with polyclonal antibody raised to Immunogen IV for this compound: Cl.Clc1cccc(N2CCNCC2)c1 [1-(3-Chlorophenyl)piperazine HCl]
Found: <1%

Lookup: Again, but for COc1cc(CCN)cc(OC)c1OC [Mescaline HCl]
Found: <1%

Lookup: Again, but for C[C@H](N)Cc1ccccc1
Found: <1%

Lookup: Again, but for CCCC(C(=O)c1ccc2c(c1)OCO2)N1CCCC1.Cl (racemic)
Found: 100%

Lookup: Again, but for CNC(C)Cc1ccc2c(c1)OCO2 (racemic)
Found: <1%
